Reference source: PubChem BioAssay

A collection of molecules and their measured inhibition
# target entity: Lethal factor (Bacillus anthracis) (UniProt P15917)
# test method notes: Lethal factor protease inhibitors, Bacillus anthracis, multiplex microsphere cleavage assay, validation set (AID 588461)
# cond: flow cytometry, at 10 µM, stronger effect = higher value
metric name: inhibition (%)

molecule | reported
CC[C@@H](CO)NC(=O)[C@@H]1C=C2c3cccc4c3c(cn4C)C[C@H]2N(C)C1 | -6.6
O=C(NCCNc1ccc(Cl)cc1[N+](=O)[O-])c1cccnc1 | 2
CC(=O)N(CCC(Cc1ccccc1)c1ccc2c(c1)OCO2)Cc1ccc(Cl)cc1 (stereo not given) | -1
CCOC(=O)c1ccccc1NC(=O)c1ccc(F)cc1 | -0.1
NS(=O)(=O)c1cc2c(cc1Cl)NCNS2(=O)=O | -4.7
COc1c(C=O)c(CCN(C)C(=O)c2ccc(F)cc2)cc2c1OCO2 | -4.4
CC(C)C[C@H](NC(=O)[C@@H]1Cc2ccccc2CN1C(=O)OC(C)(C)C)C(=O)NCC1CCC(C(=O)O)CC1 (stereo not given in full) | -3.6
CC(C)(C)NCC(O)c1cc(O)cc(O)c1 (stereo not given) | 3.9
Cn1c(=O)[nH]c(=O)c2c1nc(NCc1ccco1)n2CCCc1ccccc1 | 0.5
Cc1csc(CCc2nc(C)cs2)n1 | -2.1
CC1(c2ccccc2)CC(C)(C)N2C(=O)C(=O)c3cccc1c32 (stereo not given) | -0.4
CCCCCCCCCC(=O)OCC(O)CO (stereo not given) | -4.5
COc1cc(C=NCC2OCCc3ccccc32)cc(OC)c1 (stereo not given) | 3.3
O=C1CSC2N1CCNC21CCCCC1 (stereo not given) | -3.4
COc1ccc(C(=O)NCC2OCCc3ccccc32)cc1 (stereo not given) | -8.6
COc1ccccc1OS(=O)(=O)c1ccc(NC(C)=O)cc1 | 3
O=C(NCCc1nc2ccccc2[nH]1)c1cccc(Br)c1 | -7.9
COc1ccc(C(=O)NC(=O)NC2(C(Cl)(Cl)Cl)OCCO2)cc1 | 3.1
Cc1ccc(S(=O)(=O)NC(=O)NN2CCCCCC2)cc1 | -4.1
Cc1nc(C2CC(=O)OC23CCCCC3)cs1 (stereo not given) | -10.4
CC1(C)NC(C(=O)O)Cc2c1[nH]c1ccccc21 (stereo not given) | -2.8
CCOc1ccc2oc(-c3ccccc3)c(C(=O)O)c2c1 | -3.1
CC1(C)CC(=O)c2cc(O)ccc2O1 | -2.1
Cc1csc(-c2coc3cc(O)cc(C)c3c2=O)n1 | 0.3
CC(=O)c1c(N)nc2n(c1=O)CCCCC2 | -2.9

* * *

A collection of compounds and their measured GFP response, % of DMSO
# test method notes: modulators of CIT2-GFP expression in yeast, confirmation, S. cerevisiae, GFP fusion, cherry picks, mother/daughter gates (AID 2274)
# cond: S. cerevisiae CIT2-GFP strain, flow cytometry, 3 h; at 10 µM; stronger effect = higher value
metric name: GFP response, % of DMSO (%)

compound | units | reported
O=c1[nH]c(=O)n(Cc2ccc(F)cc2)c(O)c1C=NCCN1CCCCC1 | % | 95.8
O=C1/C(=C\c2ccc(Cl)c(Cl)c2)N2CCC1CC2 | % | 100
Cc1ccc(N2C(=O)NC(=O)/C(=C\c3cn(CC(=O)O)c4ccccc34)C2=O)cc1 | % | 96.5
O=C1NC(=O)N(CCC2=CCCCC2)C(=O)/C1=C/c1cccs1 | % | 91.2
O=C1NC(=O)N(CCc2ccc(F)cc2)C(=O)/C1=C/c1cccs1 | % | 81
O=c1[nH]c(=S)n(-c2ccccc2)c(O)c1/C=N/N1CCOCC1 | % | 100
CC1(C)OC(c2ccccc2)=C/C(=C/C=C2C(=O)NC(=S)NC2=O)O1 | % | 119
Cc1ccc(/C=C2\C(=O)NC(=O)N(CC3CCCO3)C2=O)s1 (stereo unspecified) | % | 82.6
O=C1NC(=O)C(=Cc2ccc(Sc3ccccc3)o2)C(=O)N1 | % | 91.2
O=C1CN=C(c2ccccc2F)c2cc(Cl)ccc2N1 | % | 107
CC[C@@H]1C(=O)OC[C@@H]1Cc1cncn1C | % | 99.3
